assay: RAM pathway blockade in budding yeast – dse1pr::URA3 reporter, 5-FOA selection, pilot screen (AID 869);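 further: 0% = DMSO wells with no growth and 100% = 10 µM 1-NA-PP1 with full growth; RAM network block rescues cells from 5-FOA so hits raise OD615 growth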; conditions: S. cerevisiae dse1pr::URA3 5-FOA growth, OD615, 2 d; at 10 µM; stronger effect = higher value; strain carries analog-sensitive mutant Cbk1 kinase
PROPERTY_NAME: inhibition (%)
Express the result in % but write the number alone.

These solved cases illustrate the format of a correct answer.
Cc1c(Cl)cccc1NC(=O)CCN1CCCCC1	0.655
O=C(NCCc1c[nH]c2ccccc12)c1cnc2n(c1=O)CCS2	0.62
CN(C1CCCCC1)S(=O)(=O)c1ccc(S(=O)(=O)N2CCN(CCC#N)CC2)cc1	0.805
CCOc1ccc(-c2nnc(N(CC)C(=O)C3CCC3)s2)cc1	0.825
CC1=C(C(=O)Nc2cccnc2)C(c2ccc(C(C)C)cc2)n2ncnc2N1 (stereo unspecified)	0.44

Turning now to a further record.
// query What does the record list as inhibition for CCn1cc(S(=O)(=O)CC(=O)Nc2ccc3c(c2)OCCO3)c2ccccc21 ?
// result 2.54

---

assay: H69AR cell proliferation blockers – human, duplicate replicates, primary screen (AID 580); settings: H69AR lung tumor cells viability, ATP luminescence, 72 h; at 10 µM; stronger effect = lower value;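 further: 100% = mean luminescence of untreated wells and 0% = no signal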
Active and inactive are the calls of the source.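 How the source made its calls: active means viability at or under a set limit in both replicates, limit being median viability minus 3 SD (cut at about 48% in these data, passing the limit was not always enough); inconclusive means at or under the limit in just one replicate; inactive means at or above the limit in both replicates.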
PROPERTY_NAME: viability

O=C(O)C1CC(=O)N(CCOc2ccccc2)C1 (stereo not given)	93.9% (inactive)

Turning now to a further record.
// query What does the record list as viability for COc1ccc(NC(=O)CSc2nc3c(c(=O)n2-c2ccc(F)cc2)SCC3)cc1 ?
// result 95.5% (inactive)

---

assay: S. cerevisiae growth inhibition in permissive medium (OD615), pilot counter-assay for S. cerevisiae lifespan shortening project, permissive growth control (AID 705); details: OD615, 24 h, at 10 µM, stronger effect = higher value
Each entry below carries its reported growth inhibition.
Express the result in % but write the number alone.

CC1(C)Oc2ccc3ccc(=O)oc3c2C(N2CCCCC2)C1O (stereo not drawn)	-4.78
Cn1c(C(=O)NCCc2ccsc2)cc2c(=O)n(C)c3ccccc3c21	-13.2

Turning now to a further record.
// query What does the record list as growth inhibition for COc1cccc(-c2nc(CS(=O)(=O)CC(=O)N3CCc4ccccc4C3)c(C)o2)c1 ?
// result 2.52

---

experiment: MRP1 drug-resistance reversers in H69AR cells – cell-based, doxorubicin co-treatment, pilot screen (AID 601); details: H69AR cells, CellTiter-Glo, 72 h; compound alone cytotoxicity; at 10 µM
Each entry below carries its reported viability.
Express the result in % but write the number alone.

// query What does the record list as viability for O=C(Nc1ccncc1)c1cccc(F)c1 ?
// result 92

// query What does the record list as viability for CC1CCc2nn(CC(=O)NCCCN3CCOCC3)cc2C1 (stereo unspecified) ?
// result 90.5

// query What does the record list as viability for CCC(C)NC(=O)CS(=O)(=O)Cc1nc(-c2cccc(OC)c2)oc1C (stereo unspecified) ?
// result 91.4

// query What does the record list as viability for Cc1cccc(-n2ncc3c(NCCCn4ccnc4)ncnc32)c1 ?
// result 88.6

// query What does the record list as viability for COc1ccc(-c2noc(COc3ccc(Cl)c(C)c3)n2)cc1 ?
// result 88.4

// query What does the record list as viability for Cc1ccc2cccc(SCC(=O)N3CCOCC3)c2n1 ?
// result 90.7

// query What does the record list as viability for COc1cc(C(=O)Nc2cccc(-c3nncn3C)c2)cc(OC)c1OC ?
// result 89

# credit: PubChem BioAssay
